molecular target: Activated human plasma kallikrein (Enzyme Research Laboratories, HPKa 1303) (human, UniProt P03952 20-638); test: cell-based or functional assay
Sequence (P03952 20-638 limits assumed): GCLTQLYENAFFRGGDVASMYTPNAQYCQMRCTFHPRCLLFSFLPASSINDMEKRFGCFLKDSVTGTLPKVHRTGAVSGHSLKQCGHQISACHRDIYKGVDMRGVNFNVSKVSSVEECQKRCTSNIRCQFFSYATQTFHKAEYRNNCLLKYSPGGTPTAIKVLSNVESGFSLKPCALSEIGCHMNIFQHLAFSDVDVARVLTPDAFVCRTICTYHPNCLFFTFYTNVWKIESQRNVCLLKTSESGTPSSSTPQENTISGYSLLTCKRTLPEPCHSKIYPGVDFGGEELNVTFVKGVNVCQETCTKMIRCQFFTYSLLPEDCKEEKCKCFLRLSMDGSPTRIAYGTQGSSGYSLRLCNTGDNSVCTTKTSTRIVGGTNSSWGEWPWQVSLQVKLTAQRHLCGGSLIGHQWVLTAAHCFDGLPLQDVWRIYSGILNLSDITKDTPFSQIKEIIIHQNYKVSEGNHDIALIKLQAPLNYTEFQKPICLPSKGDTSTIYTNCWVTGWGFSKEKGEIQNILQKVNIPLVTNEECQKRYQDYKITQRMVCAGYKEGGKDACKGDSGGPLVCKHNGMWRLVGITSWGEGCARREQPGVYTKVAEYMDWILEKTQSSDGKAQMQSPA
Bridge positions count the residues as written; N and C are the ends. Square brackets hold non-standard residues; d marks the D form. mXylyl = xylyl linker from dibromoxylene joining the two cysteines; des‑NH2 = missing amino-terminal amine group; NMeR = CN[C@@H](CCCNC(=N)N)C(=O)O; Chg = N[C@H](C(=O)O)C1CCCCC1; Phg = N[C@H](C(=O)O)c1ccccc1; Tle = CC(C)(C)[C@H](N)C(=O)O; αMeP = C[C@@]1(C(=O)O)CCCN1
RECORDED METRIC: Avg. IC50 (nM)
Answer format: numeric, nM implied, no suffix.

Below, 3 binders whose answers are already recorded.
INSERT INTO assay_data (binder, unit_of_measurement, obs_value) VALUES
  ('{des‑NH2}-CP[Chg]CR-{2‑methyl‑1‑(4H-1,2,4-triazol-3-yl)propan‑1‑amine} (linker 1-4 via mXylyl) [R2197]', 'nM', 56.9),
  ('{des‑NH2}-C[αMeP][Phg]CR[Tle]-NH2 (linker 1-4 via mXylyl) [R2199]', 'nM', 0.54),
  ('{des‑NH2}-CP[Phg]CR[Tle]L[NMeR]YSE-NH2 (linker 1-4 via mXylyl) [R2216]', 'nM', 0.913);

In the following, a different binder is considered.
Quick note, Avg. IC50 for {des‑NH2}-CE[Chg]CR[Tle]-NH2 (linker 1-4 via mXylyl) [R2201] landed at 7
